The measurements presented in this section are drawn from patent US20200024360A1.

- targetOrSystem: T1, human CD3ε on primary human T cells (human, UniProt P07766 23-207)
- T1 construct: whole, on cells; Part of the TCR-CD3 complex on the cells; also called cell-surface CD3ε; CD3E
- T1 sequence (P07766 23-207): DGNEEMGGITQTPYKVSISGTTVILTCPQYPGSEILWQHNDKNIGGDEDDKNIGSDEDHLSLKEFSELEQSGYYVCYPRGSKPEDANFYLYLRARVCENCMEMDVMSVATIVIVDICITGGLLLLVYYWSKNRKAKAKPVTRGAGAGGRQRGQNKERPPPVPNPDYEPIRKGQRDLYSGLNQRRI
- assaySummary: flow cytometry on primary human T cells (cell-surface CD3e), anti-human IgG (H+L) Alexa Fluor 647; one intermediate concentration of the titration is shown
- Protocol: The resulting panel of anti-CD3 antibodies was tested for binding against cell-surface CD3ε on primary human T cells. To do this, binding of antibodies from expression supernatants was visualized using a polyclonal anti-human secondary antibody and analyzed by flow cytometry. Briefly, binding of anti-CD3 antibodies to cell-surface CD3E was assessed by flow cytometry using primary Human T lymphocytes purified by negative selection (Biological Specialty, Colmar, USA). […]
metricName: binding result

Endpoint output: binding result of CD3B151 (antibody, V domains shown, also called CD3H143/CD3L63) VH: EVQLLESGGGLVQPGGSLRLSCAASGFTFNTYAMNWVRQAPGKGLEWVARIRSKYNNYATYYADSVKGRFTISRDNSKNTLYLQMNSLRAEDTAVYYCVKHGNFGNSYVSWFAYWGQGTLVTVSS VL: QAVVTQEPSLTVSPGGTVTLTCRSSTGAVTTSNYANWVQQKPGQAPRGLIGGTNKRAPGTPARFSGSLLGGKAALTLSGAQPEDEAEYYCALWYSNLWVFGGGTKLTVL . Value?
binds

What about this binder? CD3B147 (antibody, V domains shown, also called CD3H142/CD3L63) VH: EVQLLESGGGLVQPGGSLRLSCAASGFTFNTYAMNWVRQAPGKGLEWVARIRSKYNNYATYYADSVKGRFTISRDNSKNTLYLQMNSLRAEDTAVYYCAKHGNFGNSYVSWFAYWGQGTLVTVSS VL: QAVVTQEPSLTVSPGGTVTLTCRSSTGAVTTSNYANWVQQKPGQAPRGLIGGTNKRAPGTPARFSGSLLGGKAALTLSGAQPEDEAEYYCALWYSNLWVFGGGTKLTVL
binds

What about this binder? CD3B156 (antibody, V domains shown, also called CD3H144/CD3L64) VH: EVQLVESGGGLVQPGGSLKLSCAASGFTFNTYAMNWVRQASGKGLEWVGRIRSKYNGYATYYAASVKGRFTISRDDSKNTAYLQMNSLKTEDTAVYYCTRHGNFGNSYVSWFAYWGQGTLVTVSS VL: QSVLTQPPSVSAAPGQKVTISCRSSTGAVTTSNYANWVQQLPGTAPKGLIGGTNKRAPGIPDRFSGSKSGTSATLGITGLQTGDEADYYCALWYSNLWVFGGGTKLTVL
binds

What about this binder? CD3B150 (antibody, V domains shown, also called CD3H142/CD3L66; CD3B50) VH: EVQLLESGGGLVQPGGSLRLSCAASGFTFNTYAMNWVRQAPGKGLEWVARIRSKYNNYATYYADSVKGRFTISRDNSKNTLYLQMNSLRAEDTAVYYCAKHGNFGNSYVSWFAYWGQGTLVTVSS VL: QTVVTQEPSLTVSPGGTVTLTCRSSTGAVTTSNYANWVQQKPGQAPRGLIGGTNKRAPGTPARFSGSLLGGKAALTLSGVQPEDEAEYYCALWYSNLWVFGGGTKLTVL
binds

New cases:
Endpoint output: binding result of CD3B146 (antibody, V domains shown, also called CD3H141/CD3L66) VH: EVQLVESGGGLVQPGGSLRLSCAASGFTFNTYAMNWVRQAPGKGLEWVARIRSKYNNYATYYAASVKGRFTISRDDSKNSLYLQMNSLKTEDTAVYYCARHGNFGNSYVSWFAYWGQGTLVTVSS VL: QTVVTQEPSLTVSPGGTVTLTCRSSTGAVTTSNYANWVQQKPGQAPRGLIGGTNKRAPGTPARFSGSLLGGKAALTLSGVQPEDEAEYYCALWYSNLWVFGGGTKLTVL . Value?
binds
